Measured values drawn from PubChem BioAssay for this set.

Experiment: Plasmodium falciparum growth inhibition, primary screen, strain 3D7, DAPI fluorescence, 100 nL (AID 1184);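 further: parasites grown inside human red blood cells in medium with human serum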
Details: P. falciparum 3D7 growth, 3 d, higher = more signal
This listing pairs compounds with measured z-score.
Please respond with just the number, no unit label.

In the examples that follow, each entry is paired with its recorded z-score.
compound | z-score
C=C(C(=O)CC[C@H](OC(=O)c1ccccc1-c1ccccc1C(=O)O)c1ccc(OCCO)cc1)C(C)C | -2.71
C[C@]12C(=O)N(CCO)[C@@H]3C(=O)N(c4ccc(Cl)cc4)CC=CC31O[C@@H]1/C=C\CCCOC(=O)C12 (stereo partly drawn) | -1.39
COc1ccc([Si](C)(C)[C@H]2[C@H](CC(=O)N(CCO)Cc3ccccc3)O[C@@]3(C(=O)N(Cc4cccc(N5CCCCC5=O)c4)c4ccccc43)[C@@H]2C)cc1 | -2.59
CN(C)C(=O)[C@]1(CCS(=O)(=O)c2ccccc2)N=C(c2ccc(OCCCO)cc2)O[C@@H]1c1ccccc1CN=[N+]=[N-] | -2.13

Name the recorded z-score for O=C1OCC=C[C@H]2OC34C=CCN(Cn5nnc6ccccc65)C(=O)[C@H]3N(CCO)C(=O)[C@@H]4[C@@H]12 (stereo partly drawn) .
1.12

Fill in the blank: the reported z-score of C=CCNC(=O)[C@H]1[C@@H]2C(=O)O[C@@H](c3ccccc3)[C@@H](c3ccccc3)N2[C@@H](c2ccc(OCCO)cc2)[C@]12C(=O)N(C(=O)OCCOC)c1ccc(C#CCNC(N)=O)cc12 is ____.
0.0978

Query (compound): O=C1O[C@@H](c2ccccc2)[C@@H](c2ccccc2)N2[C@@H](c3ccc(OCCO)cc3)[C@]3(C(=O)Nc4ccc(C#CC5=CCCCC5)cc43)[C@@H](C(=O)Nc3nc4ccccc4s3)[C@H]12 ; field requested: z-score
-1.38

# query: z-score of entry COC(=O)[C@@]1(Cc2ccc(F)cc2)[C@H]2c3cc(C(=O)N4CCCC4)n(CCSCCO)c3C[C@H]2CN1C(=O)c1ccccc1
-1.41

Using the record for CC(C)(C)OC(=O)CC[C@]1(C(=O)N2CCOCC2)COC(c2ccc(OCCCO)cc2)=N1 , report its z-score.
0.33

Param item = CCCCCN1CC=CC23O[C@@H]4/C=C\CCCOC(=O)C4[C@H]2C(=O)N(CCO)[C@@H]3C1=O (stereo partly drawn) ; retrieve measured z-score.
-1.31
